All values here come from paper PMC4556614.

Study system: UniProtKB O15244
Measurement description: in vitro
Measurement context: human, pH 7.3
Description: For the transport assays HEK cell lines stably transfected with human OCT2 (HEK-OCT2) or the vector only (HEK-VC) were used. The HEK-OCT2 cell line was established and characterized previously. […] The intracellular accumulation of radioactivity was determined by liquid scintillation counting (PerkinElmer, Rodgau-Jügesheim, Germany) and protein concentration of each lysate was measured with bicinchonic acid assay (BCA Protein Assay Kit, Thermo Fisher Scientific, Waltham, MA, USA). […]
Rule: t for % Inhibition of OCT2-dependent MF uptake at 200 µM (mean ± SEM) not less than 70, f for anything less.

Consider the following illustrative entries.
1. NCC1(CC(=O)O)CCCCC1: f
2. CCC1=C(C)CN(C(=O)NCCc2ccc(S(=O)(=O)NC(=O)N[C@H]3CC[C@H](C)CC3)cc2)C1=O [Glimepiride]: f
3. Cn1c(=O)c2[nH]cnc2n(C)c1=O: f
4. Cc1cc2c(s1)Nc1ccccc1N=C2N1CCN(C)CC1: t
5. CN1CCN(C2=Nc3cc(Cl)ccc3Nc3ccccc32)CC1: t

Identify whether the reported % Inhibition of OCT2-dependent MF uptake at 200 µM (mean ± SEM) of the following molecule is 70 or greater: `C[C@H]1c2cccc(O)c2C(=O)C2=C(O)[C@]3(O)C(=O)C(C(N)=O)=C(O)[C@@H](N(C)C)[C@@H]3[C@@H](O)[C@@H]21`
f

Identify whether the reported % Inhibition of OCT2-dependent MF uptake at 200 µM (mean ± SEM) of the following molecule is 70 or greater: COC(=O)C(c1ccccc1)C1CCCCN1 (stereo not drawn) [Methylphenidate]
t

###

Study system: OCT2 (Homo sapiens)
Measurement description: Inhibition of OCT2-mediated [3H]MPP+ uptake in HEK-OCT2 cells
Measurement context: test drug 200 µM; MPP+ 50 μM; 3 min; net uptake HEK-OCT2 minus HEK-VC
Rule: 1.0 for % Inhibition of OCT2-dependent MPP+ uptake at 200 µM (mean ± SEM) not less than 70%, 0.0 for anything less.

Consider the following illustrative entries.
1. CNCCC(Oc1ccc(C(F)(F)F)cc1)c1ccccc1 (centres unmarked): 1.0
2. COc1ccc(C(CN(C)C)C2(O)CCCCC2)cc1 (centres unmarked): 0.0

Identify whether the reported % Inhibition of OCT2-dependent MPP+ uptake at 200 µM (mean ± SEM) of the following compound is 70% or greater: `CNC(=C[N+](=O)[O-])NCCSCc1ccc(CN(C)C)o1`
0.0

Identify whether the reported % Inhibition of OCT2-dependent MPP+ uptake at 200 µM (mean ± SEM) of the following compound is 70% or greater: COc1ccc(Cl)cc1C(=O)NCCc1ccc(S(=O)(=O)NC(=O)NC2CCCCC2)cc1 [Glibenclamide]
0.0

Identify whether the reported % Inhibition of OCT2-dependent MPP+ uptake at 200 µM (mean ± SEM) of the following compound is 70% or greater: `O=C(O)Cc1ccccc1Nc1c(Cl)cccc1Cl`
0.0

Identify whether the reported % Inhibition of OCT2-dependent MPP+ uptake at 200 µM (mean ± SEM) of the following compound is 70% or greater: COCCc1ccc(OCC(O)CNC(C)C)cc1 (centres unmarked)
0.0

Identify whether the reported % Inhibition of OCT2-dependent MPP+ uptake at 200 µM (mean ± SEM) of the following compound is 70% or greater: O=C1Nc2ccc(Cl)cc2C(c2ccccc2Cl)=NC1O (centres unmarked)
0.0

Identify whether the reported % Inhibition of OCT2-dependent MPP+ uptake at 200 µM (mean ± SEM) of the following compound is 70% or greater: `C#C[C@]1(O)CC[C@H]2[C@@H]3CCc4cc(O)ccc4[C@H]3CC[C@@]21C`
0.0

Identify whether the reported % Inhibition of OCT2-dependent MPP+ uptake at 200 µM (mean ± SEM) of the following compound is 70% or greater: `CC(=O)S[C@@H]1CC2=CC(=O)CC[C@]2(C)[C@H]2CC[C@@]3(C)[C@@H](CC[C@@]34CCC(=O)O4)[C@H]12`
1.0

Identify whether the reported % Inhibition of OCT2-dependent MPP+ uptake at 200 µM (mean ± SEM) of the following compound is 70% or greater: `CN(C)CCCN1c2ccccc2CCc2ccc(Cl)cc21`
1.0

Identify whether the reported % Inhibition of OCT2-dependent MPP+ uptake at 200 µM (mean ± SEM) of the following compound is 70% or greater: COc1ccc2[nH]c([S+]([O-])Cc3ncc(C)c(OC)c3C)nc2c1 (centres unmarked)
1.0

Identify whether the reported % Inhibition of OCT2-dependent MPP+ uptake at 200 µM (mean ± SEM) of the following compound is 70% or greater: CN1CCN2c3ncccc3Cc3ccccc3C2C1 (centres unmarked)
0.0

Identify whether the reported % Inhibition of OCT2-dependent MPP+ uptake at 200 µM (mean ± SEM) of the following compound is 70% or greater: `O=C(CCCN1CCC(O)(c2ccc(Cl)cc2)CC1)c1ccc(F)cc1`
0.0

###

Study system: UniProtKB O15244
Measurement description: in vitro
Measurement context: human, pH 7.3
Form field: % Inhibition of OCT2-dependent MF uptake at 200 µM (mean ± SEM) (one value per entry).
Form field (numeric): enter value without unit.

Record excerpt, results attached:
1) CC(C)C[C@H](CN)CC(=O)O: 27.2
2) Nc1ccc(O)c(C(=O)O)c1: 59.8

For record COc1ccc(C(CN(C)C)C2(O)CCCCC2)cc1 (stereo not drawn) the listed % Inhibition of OCT2-dependent MF uptake at 200 µM (mean ± SEM) is 72.2

For record `C#C[C@]1(O)CC[C@H]2[C@@H]3CCc4cc(O)ccc4[C@H]3CC[C@@]21C` the listed % Inhibition of OCT2-dependent MF uptake at 200 µM (mean ± SEM) is 62.2

For record `O=C(CCCN1CCC(O)(c2ccc(Cl)cc2)CC1)c1ccc(F)cc1` the listed % Inhibition of OCT2-dependent MF uptake at 200 µM (mean ± SEM) is 66.9

For record `CCOc1ccccc1OCCN[C@H](C)Cc1ccc(OC)c(S(N)(=O)=O)c1` the listed % Inhibition of OCT2-dependent MF uptake at 200 µM (mean ± SEM) is 107.0

For record Cc1cccc(Nc2ccncc2S(=O)(=O)NC(=O)NC(C)C)c1 [Torasemide] the listed % Inhibition of OCT2-dependent MF uptake at 200 µM (mean ± SEM) is -19.5

For record `N[C@@H](CC(=O)N1CCn2c(nnc2C(F)(F)F)C1)Cc1cc(F)c(F)cc1F` the listed % Inhibition of OCT2-dependent MF uptake at 200 µM (mean ± SEM) is 97.5

###

Form field: % Inhibition of OCT2-dependent MF uptake at 200 µM (mean ± SEM) (one value per entry).
Study system: OCT2 (Homo sapiens, UniProt O15244)
Sequence (O15244 whole entry): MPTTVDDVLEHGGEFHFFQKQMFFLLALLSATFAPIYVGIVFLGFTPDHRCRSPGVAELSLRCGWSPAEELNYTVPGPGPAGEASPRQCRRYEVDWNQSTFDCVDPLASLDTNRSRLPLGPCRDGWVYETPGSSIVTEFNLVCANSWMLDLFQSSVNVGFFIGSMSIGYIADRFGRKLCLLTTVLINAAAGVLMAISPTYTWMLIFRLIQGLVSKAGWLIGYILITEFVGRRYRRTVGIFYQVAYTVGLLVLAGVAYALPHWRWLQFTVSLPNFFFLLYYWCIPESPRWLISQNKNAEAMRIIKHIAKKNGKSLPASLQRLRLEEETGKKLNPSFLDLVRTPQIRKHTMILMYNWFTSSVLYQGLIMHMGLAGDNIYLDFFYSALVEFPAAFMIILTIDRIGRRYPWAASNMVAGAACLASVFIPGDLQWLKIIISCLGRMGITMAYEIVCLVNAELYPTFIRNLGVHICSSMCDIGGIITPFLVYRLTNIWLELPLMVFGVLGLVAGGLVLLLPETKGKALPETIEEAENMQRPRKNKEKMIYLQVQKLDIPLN
Measurement description: in vitro
Measurement context: human, pH 7.3
Form field (numeric): enter value without unit.

1. CCC(=O)C(CC(C)N(C)C)(c1ccccc1)c1ccccc1 (centres unmarked) [Methadone]: 99.3
2. O=C1Nc2ccc(Cl)cc2C(c2ccccc2Cl)=NC1O (centres unmarked) [Lorazepam]: 96.5
3. CN(C)CCCN1c2ccccc2CCc2ccc(Cl)cc21 [Clomipramine]: 99.5

For record Cc1nc2n(c(=O)c1CCN1CCC(c3noc4cc(F)ccc34)CC1)CCCC2 [Risperidone] the listed % Inhibition of OCT2-dependent MF uptake at 200 µM (mean ± SEM) is 98.3

For record CCOC(=O)C1=C(C)NC(C)=C(C(=O)OC)C1c1cccc(Cl)c1Cl (centres unmarked) [Felodipine] the listed % Inhibition of OCT2-dependent MF uptake at 200 µM (mean ± SEM) is 15.9

For record NC(=O)CN1CCCC1=O [Piracetam] the listed % Inhibition of OCT2-dependent MF uptake at 200 µM (mean ± SEM) is 2.5

For record O=C(O[C@H]1C[C@H]2CC[C@@H](C1)[N+]21CCCC1)C(O)(c1ccccc1)c1ccccc1 [Trospium chloride] the listed % Inhibition of OCT2-dependent MF uptake at 200 µM (mean ± SEM) is 98.8

For record CC(C)OC(=O)C(C)(C)Oc1ccc(C(=O)c2ccc(Cl)cc2)cc1 [Fenofibrate] the listed % Inhibition of OCT2-dependent MF uptake at 200 µM (mean ± SEM) is 73.4

For record O=C1Nc2ccc(Cl)cc2C(c2ccccc2)=NC1O (centres unmarked) [Oxazepam] the listed % Inhibition of OCT2-dependent MF uptake at 200 µM (mean ± SEM) is 97.5

For record CC1CCN(CCCC(=O)c2ccc(F)cc2)CC1 [Melperone] the listed % Inhibition of OCT2-dependent MF uptake at 200 µM (mean ± SEM) is 94.9

For record CNC(=C[N+](=O)[O-])NCCSCc1ccc(CN(C)C)o1 [Ranitidine] the listed % Inhibition of OCT2-dependent MF uptake at 200 µM (mean ± SEM) is 91.5

For record CCCCC1=NC2(CCCC2)C(=O)N1Cc1ccc(-c2ccccc2-c2nnn[nH]2)cc1 [Irbesartan] the listed % Inhibition of OCT2-dependent MF uptake at 200 µM (mean ± SEM) is -14.2

For record CN1C(=O)C(O)N=C(c2ccccc2Cl)c2cc(Cl)ccc21 (centres unmarked) [Lormetazepam] the listed % Inhibition of OCT2-dependent MF uptake at 200 µM (mean ± SEM) is 92.4

For record CN1C(=O)CN=C(c2ccccc2F)c2cc([N+](=O)[O-])ccc21 [Flunitrazepam] the listed % Inhibition of OCT2-dependent MF uptake at 200 µM (mean ± SEM) is 92.9

For record CC(CN1c2ccccc2Sc2ccccc21)N(C)C (centres unmarked) [Promethazine] the listed % Inhibition of OCT2-dependent MF uptake at 200 µM (mean ± SEM) is 100.7

For record COc1ccnc(C[S+]([O-])c2nc3ccc(OC(F)F)cc3[nH]2)c1OC (centres unmarked) [Pantoprazole] the listed % Inhibition of OCT2-dependent MF uptake at 200 µM (mean ± SEM) is 98.9

For record CCN(C)C(=O)Oc1cccc([C@H](C)N(C)C)c1 [Rivastigmine] the listed % Inhibition of OCT2-dependent MF uptake at 200 µM (mean ± SEM) is 91.4

For record C[C@H]1O[C@@H](O[C@H]2[C@@H](O)C[C@H](O[C@H]3[C@@H](O)C[C@H](O[C@H]4CC[C@@]5(C)[C@H](CC[C@@H]6[C@@H]5CC[C@]5(C)[C@@H](C7=CC(=O)OC7)CC[C@]65O)C4)O[C@@H]3C)O[C@@H]2C)C[C@H](O)[C@@H]1O [Digitoxin] the listed % Inhibition of OCT2-dependent MF uptake at 200 µM (mean ± SEM) is 32.8

For record NCCCC[C@H](N[C@@H](CCc1ccccc1)C(=O)O)C(=O)N1CCC[C@H]1C(=O)O [Lisinopril] the listed % Inhibition of OCT2-dependent MF uptake at 200 µM (mean ± SEM) is 2.9

For record CN[C@H]1CC[C@@H](c2ccc(Cl)c(Cl)c2)c2ccccc21 [Sertraline] the listed % Inhibition of OCT2-dependent MF uptake at 200 µM (mean ± SEM) is 100.5
